Measured pIC50 of individual entries
- TGT: NS3 protease (Hepatitis C virus subtype 1b, UniProt Q0ZMF1, A156T)
- ASSAY_OVERVIEW: Inhibition of Hepatitis C virus genotype 1b NS3/4A protease A156T mutant assessed as substrate cleavage using Ac-C(Eu)DDMEEAbu(COO)ASK(QSY7)-amide as substrate incubated for 30 mins prior to substrate addition by time-resolved fluorescence assay
API: returns pIC50 as number; meaning -log10 of concentration in mol/L.

The following compounds have reported results that may help.
COMPOUND	TGT	MEASURED_NUMBER
C=C[C@@H]1C[C@]1(NC(=O)[C@@H]1C[C@@H]2CN1C(=O)[C@H](C1CCCCC1)NC(=O)O[C@@H]1C[C@H]1CCCCCc1c(nc3ccccc3c1OC1CCN(CCOC(F)(F)F)CC1)O2)C(=O)NS(=O)(=O)C1(C)CC1	NS3 protease (Hepatitis C virus subtype 1b, UniProt Q0ZMF1, A156T)	8.88
C=C[C@@H]1C[C@]1(NC(=O)[C@@H]1C[C@@H]2CN1C(=O)[C@H](C(C)(C)C)NC(=O)O[C@@H]1C[C@H]1CCCCCc1nc3ccc(OC)cc3nc1O2)C(=O)NS(=O)(=O)C1CC1 [GRAZOPREVIR ANHYDROUS]	NS3 protease (Hepatitis C virus subtype 1b, UniProt Q0ZMF1, A156T)	8.28
C=C[C@@H]1C[C@]1(NC(=O)[C@@H]1C[C@@H]2CN1C(=O)[C@H](C1CCCCC1)NC(=O)O[C@@H]1C[C@H]1CCCCCc1c(nc3ccccc3c1OC1CCN(CC(F)(F)F)CC1)O2)C(=O)NS(=O)(=O)C1(C)CC1	NS3 protease (Hepatitis C virus subtype 1b, UniProt Q0ZMF1, A156T)	7.58

Continue with the next compound.
Query block: // lookup pIC50 | system=NS3 protease (Hepatitis C virus subtype 1b, UniProt Q0ZMF1, A156T) | key= C=C[C@@H]1C[C@]1(NC(=O)[C@@H]1C[C@@H]2CN1C(=O)[C@H](C1CCCCC1)NC(=O)O[C@@H]1C[C@H]1CCCCCc1c(nc3ccccc3c1OC1CCOCC1)O2)C(=O)NS(=O)(=O)C1(C)CC1
Result block: 8.39

====

- ASSAY_OVERVIEW: AUC in rat at 5 mg/kg, po
- Format: ADME, organism-based
- Set-up: dose 5 mg/kg, route oral
- SETUP_CONDITIONS: plasma
Measured AUC of individual entries
Output spec: scalar in µM·h, unitless text.

The following compounds have reported results that may help.
COMPOUND	RESULT_TYPE	MEASURED_NUMBER
C=C[C@@H]1C[C@]1(NC(=O)[C@@H]1C[C@@H]2CN1C(=O)[C@H](C1CCCCC1)NC(=O)O[C@@H]1C[C@H]1CCCCCc1c(nc3ccccc3c1OC1CCNCC1)O2)C(=O)NS(=O)(=O)C1(C)CC1	AUC	0.01
C=C[C@@H]1C[C@]1(NC(=O)[C@@H]1C[C@@H]2CN1C(=O)[C@H](C(C)(C)C)NC(=O)O[C@@H]1C[C@H]1CCCCCc1nc3ccc(OC)cc3nc1O2)C(=O)NS(=O)(=O)C1CC1 [GRAZOPREVIR ANHYDROUS]	AUC	0.7
C=C[C@@H]1C[C@]1(NC(=O)[C@@H]1C[C@@H]2CN1C(=O)[C@H](C1CCCCC1)NC(=O)O[C@@H]1C[C@H]1CCCCCc1c(nc3ccccc3c1OCCCN1CCN(C)CC1)O2)C(=O)NS(=O)(=O)C1(C)CC1	AUC	0.1
C=C[C@@H]1C[C@]1(NC(=O)[C@@H]1C[C@@H]2CN1C(=O)[C@H](C1CCCCC1)NC(=O)O[C@@H]1C[C@H]1CCCCCc1c(nc3ccccc3c1OC1CCN(CC3CC3)CC1)O2)C(=O)NS(=O)(=O)C1(C)CC1	AUC	2.8
C=C[C@@H]1C[C@]1(NC(=O)[C@@H]1C[C@@H]2CN1C(=O)[C@H](C1CCCCC1)NC(=O)O[C@@H]1C[C@H]1CCCCCc1c(nc3ccccc3c1O[C@H]1C[C@H]3CC[C@@H](C1)N3C)O2)C(=O)NS(=O)(=O)C1(C)CC1	AUC	1.2

Query block: Requested field: AUC. Item: C=C[C@@H]1C[C@]1(NC(=O)[C@@H]1C[C@@H]2CN1C(=O)[C@H](C1CCCCC1)NC(=O)O[C@@H]1C[C@H]1CCCCCc1c(nc3ccccc3c1OC1CCN(C)CC1)O2)C(=O)NS(=O)(=O)C1(C)CC1
Result block: 2.7

Query block: Requested field: AUC. Item: C=C[C@@H]1C[C@]1(NC(=O)[C@@H]1C[C@@H]2CN1C(=O)[C@H](C1CCCCC1)NC(=O)O[C@@H]1C[C@H]1CCCCCc1c(nc3ccccc3c1OC1CCN(CC)CC1)O2)C(=O)NS(=O)(=O)C1(C)CC1
Result block: 2.3

Query block: Requested field: AUC. Item: C=C[C@@H]1C[C@]1(NC(=O)[C@@H]1C[C@@H]2CN1C(=O)[C@H](C(C)(C)C)NC(=O)O[C@@H]1C[C@H]1CCCCCc1c(nc3ccccc3c1O[C@H]1C[C@H]3CC[C@@H](C1)N3CC)O2)C(=O)NS(=O)(=O)C1(C)CC1
Result block: 0.01
